The values you see were collected from PubChem BioAssay (NCI).

system: SNB-19 CNS; assay: NCI-60 one-dose screen, 48 h (100 = growth as untreated, 0 = no growth, -100 = all killed); conditions: 10 µM
Compounds without any hit were thinned out: in the full panel of roughly 83,000, 20% have a hit.
# key: entry, value: growth
Give the value in % but do not write % after it.

Consider the reported growth for these compounds:
// query Can you look up the measured growth of O=C(NC(Cc1ccc(O)cc1)C(=O)N=Nc1c(O)[nH]c2ccccc12)c1ccccc1 (centres undefined) for me?
// result 96.9

// query Queued: "COc1cc(Cl)cc(-c2nn(-c3cccc(NC(=O)c4ccc(N5CCOCC5)c(C(F)(F)F)c4)c3)cc2-c2ccncc2)c1"
// result 75.5

// query Queued: O=C1OCC2=C1C(c1cccc(Cl)c1)c1cc3c(cc1N2CCO)OCO3 (centres undefined)
// result 37.8

---
// query Can you look up the measured growth of "Cc1ccc(NC(=O)Nc2nc3ccccc3s2)cc1NC(=O)Nc1nc2ccccc2s1" for me?
// result 92

* * *

system: MDA-MB-231 breast; experiment: NCI-60 one-dose screen, 48 h; conditions: 10 µM
The panel holds about 83,000 compounds, 20% with a hit somewhere; the sample as a whole holds those more often. Calls of active or inactive are those of the source. Rule for the calls: active = growth percent below 10; inactive = the rest.
I would appreciate it if you answered using one of these outcomes: 1 (active), 0 (inactive)

// query Any idea what this test logged for "COc1cc(C(=C2O[C@@H]([C@H]3COC(C)(C)O3)[C@H]3OC(C)(C)O[C@@H]23)c2cc(OC)c(OC)c(OC)c2)cc(OC)c1OC" ?
// result 0

// query Queued: "Clc1ccc(Sc2nc(NC3CC3)nc(Sc3ccc(Cl)cc3)n2)cc1"
// result 0

// query Queued: "COc1ccc2c(c1)nc(N)c1c3cccnc3cn21"
// result 0

// query Queued: "C#Cc1ccc(-n2c(/C=C/c3ccc(O)cc3)nc3ncccc3c2=O)cc1"
// result 0

---
// query Any idea what this test logged for Nc1ccn(C2CC(O)C(CO)O2)c(=O)n1 (stereo not drawn) ?
// result 0

// query Queued: "CCOC(=O)C(=Cc1ccc(Br)cc1)C(=O)OCC"
// result 1

// query Queued: "C#Cc1ccc(-n2c(/C=C/c3cc(OC)cc(OC)c3)nc3ncccc3c2=O)cc1"
// result 0

// query Queued: "CNc1ccc(CSc2ccc(C)cc2)cc1"
// result 0

* * *

tested on: A549/ATCC NSCLC; experiment: NCI-60 one-dose screen, 48 h (100 = growth as untreated, 0 = no growth, -100 = all killed); conditions: 10 µM
Compounds without any hit were thinned out: in the full panel of roughly 83,000, 20% have a hit.
# key: entry, value: growth
Give the value in % but do not write % after it.

Consider the reported growth for these molecules:
// query Can you look up the measured growth of "CSc1cc(SC)ncn1" for me?
// result 105

// query Queued: "CCN(CC)CCN1CC(=O)Nc2cc(Cl)ccc21"
// result 102

// query Queued: "Oc1[nH]c2cc(Cl)ccc2c1/C=c1/ccc2c(c1)N=C(c1cc(F)cc(F)c1)N=2"
// result 37.9

// query Queued: "Cc1ccc(S(=O)(=O)Oc2ccc3c4c(c(=O)oc3c2)CCCCC4)cc1"
// result 40.9

// query Queued: "CC/C(=C(/c1ccc(OCCN(C)C)cc1)c1ccc(OC(=O)CCC(=O)c2c(C)[nH]c(/C=C3\N=C(c4ccc[nH]4)C=C3OC)c2C)cc1)c1ccccc1"
// result 11

---
// query Can you look up the measured growth of "O=c1[nH]c2ccc(Cl)cc2c2ccccc12" for me?
// result 79.5

// query Queued: O=C(CC(C(=O)c1ccccc1)N1CCOCC1)c1ccccc1 (configuration not stated)
// result 91.9
